study-system: Peroxisome proliferator-activated receptor gamma (Homo sapiens)
Sequence (P37231 whole entry): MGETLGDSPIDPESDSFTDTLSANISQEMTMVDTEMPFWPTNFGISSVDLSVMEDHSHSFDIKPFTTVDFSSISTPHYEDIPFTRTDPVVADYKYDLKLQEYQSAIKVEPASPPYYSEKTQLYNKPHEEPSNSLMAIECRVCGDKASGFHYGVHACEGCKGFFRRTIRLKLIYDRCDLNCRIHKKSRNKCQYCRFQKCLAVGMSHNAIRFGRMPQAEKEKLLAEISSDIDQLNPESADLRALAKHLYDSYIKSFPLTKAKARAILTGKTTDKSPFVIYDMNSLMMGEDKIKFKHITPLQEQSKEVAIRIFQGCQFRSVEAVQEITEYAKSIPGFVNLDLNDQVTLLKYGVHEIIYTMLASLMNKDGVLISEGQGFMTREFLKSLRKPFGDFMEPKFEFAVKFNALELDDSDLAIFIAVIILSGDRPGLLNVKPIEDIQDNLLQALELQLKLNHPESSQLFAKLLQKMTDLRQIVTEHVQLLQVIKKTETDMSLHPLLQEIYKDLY
assay-comment: Transactivation activity at PPARgamma (unknown origin)
Listing of entries alongside the reported pEC50.
FYI, pEC50 means -log10 of a concentration in mol per litre.

Answered examples (6):
>>> observed("CCOC(=O)CN1C(=O)SC(Cc2ccc(F)cc2)C1=O (stereo not drawn)")
5.00
>>> observed("CCOC(=O)CN1C(=O)S/C(=C\\c2ccc(C(F)(F)F)cc2)C1=O")
5.00
>>> observed("COC(=O)CN1C(=O)SC(Cc2ccc(O)cc2)C1=O (stereo not drawn)")
5.05
>>> observed("CCOC(=O)CN1C(=O)SC(Cc2ccc(N)cc2)C1=O (stereo not drawn)")
5.10
>>> observed("CCOC(=O)CN1C(=O)S/C(=C\\c2ccc(C)cc2)C1=O")
5.05
>>> observed("CCOC(=O)CN1C(=O)S/C(=C\\c2ccc(Cl)cc2)C1=O")
5.10

## Task Query (compound): "CCOC(=O)CN1C(=O)S/C(=C\c2cccc([N+](=O)[O-])c2)C1=O" ; field requested: pEC50
## Result 4.96

## Task Query (compound): "CCOC(=O)CN1C(=O)S/C(=C\c2ccc(OCCBr)cc2)C1=O" ; field requested: pEC50
## Result 4.96

## Task Query (compound): "CCOC(=O)CN1C(=O)S/C(=C\c2ccc(OC)cc2)C1=O" ; field requested: pEC50
## Result 5.15

Value source: ChEMBL document CHEMBL3046024
